# EXPERIMENTAL_SYSTEM: NH(3)-dependent NAD(+) synthetase (Bacillus subtilis (strain 168))
# Sequence (P08164 whole entry): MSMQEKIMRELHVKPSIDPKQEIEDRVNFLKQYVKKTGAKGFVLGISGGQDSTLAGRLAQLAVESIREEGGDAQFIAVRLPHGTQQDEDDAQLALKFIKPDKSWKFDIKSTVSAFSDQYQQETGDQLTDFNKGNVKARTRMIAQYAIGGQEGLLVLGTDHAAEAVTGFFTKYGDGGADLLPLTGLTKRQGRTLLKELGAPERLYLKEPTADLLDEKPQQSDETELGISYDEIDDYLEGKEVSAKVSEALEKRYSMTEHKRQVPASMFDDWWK
# PROTOCOL_DESCRIPTION: Inhibitory activity against Bacillus subtilis NAD synthetase
One threshold, 20 µM, splits the recorded IC50 values: lower ones are true, equal or higher ones are false.

Exercise: Please check: IC50 for `O=C(OCCn1ccc2cc([N+](=O)[O-])ccc21)c1cccnc1` , strictly under 20 µM or not?
Key: false

Exercise: Please check: IC50 for `COC(=O)c1cc2cc(OCc3ccccc3)ccc2n1CCCCCCCCOC(=O)c1cc[n+](C)cc1` , strictly under 20 µM or not?
Key: true

Exercise: Please check: IC50 for `C[N+](C)(C)c1ccc(CC(=O)OCCCCCCn2ccc3cc([N+](=O)[O-])ccc32)cc1` , strictly under 20 µM or not?
Key: false

Exercise: Please check: IC50 for `COC(=O)c1cc2ccccc2n1CCCCCCOC(=O)Cc1ccc([N+](C)(C)C)cc1` , strictly under 20 µM or not?
Key: false

Exercise: Please check: IC50 for `C[n+]1cccc(C(=O)OCCCCCCCCCn2ccc3ccccc32)c1` , strictly under 20 µM or not?
Key: false

Exercise: Please check: IC50 for `C[n+]1cccc(C(=O)OCCOCCOCCn2ccc3cc(OCc4ccccc4)ccc32)c1` , strictly under 20 µM or not?
Key: false

Exercise: Please check: IC50 for `C[N+](C)(C)c1ccc(CC(=O)OCCCCCCn2ccc3cc(OCc4ccccc4)ccc32)cc1` , strictly under 20 µM or not?
Key: false

Exercise: Please check: IC50 for `COC(=O)c1cc2ccccc2n1CCCCCCCCCOC(=O)c1ccc[n+](C)c1` , strictly under 20 µM or not?
Key: false

Exercise: Please check: IC50 for `COC(=O)c1cc2cc(OCc3ccccc3)ccc2n1CCCCCCCCCOC(=O)Cc1ccc([N+](C)(C)C)cc1` , strictly under 20 µM or not?
Key: true

Exercise: Please check: IC50 for `C[n+]1cccc(C(=O)OCCCCCCn2ccc3cc([N+](=O)[O-])ccc32)c1` , strictly under 20 µM or not?
Key: false

Exercise: Please check: IC50 for `C[n+]1cccc(C(=O)OCCCCn2ccc3cc([N+](=O)[O-])ccc32)c1` , strictly under 20 µM or not?
Key: false

Exercise: Please check: IC50 for `COC(=O)c1cc2cc(OCc3ccccc3)ccc2n1CCCCCCOC(=O)c1ccc[n+](C)c1` , strictly under 20 µM or not?
Key: false

Exercise: Please check: IC50 for `C[N+](C)(C)c1ccc(CC(=O)OCCCCn2ccc3cc([N+](=O)[O-])ccc32)cc1` , strictly under 20 µM or not?
Key: false

Exercise: Please check: IC50 for `C[N+](C)(C)c1ccc(CC(=O)OCCCCCn2ccc3cc(OCc4ccccc4)ccc32)cc1` , strictly under 20 µM or not?
Key: false

Exercise: Please check: IC50 for `C[N+](C)(C)c1ccc(CC(=O)OCCCCCCCCCn2ccc3cc([N+](=O)[O-])ccc32)cc1` , strictly under 20 µM or not?
Key: false

Exercise: Please check: IC50 for `O=C(OCCCCn1ccc2cc([N+](=O)[O-])ccc21)c1cccnc1` , strictly under 20 µM or not?
Key: false

Exercise: Please check: IC50 for `C[N+](C)(C)c1ccc(CC(=O)OCCCCn2ccc3cc(OCc4ccccc4)ccc32)cc1` , strictly under 20 µM or not?
Key: false

Exercise: Please check: IC50 for `COC(=O)c1cc2ccccc2n1CCCCCCCCOC(=O)c1cc[n+](C)cc1` , strictly under 20 µM or not?
Key: false

Exercise: Please check: IC50 for `C[n+]1cccc(C(=O)OCCCn2ccc3cc([N+](=O)[O-])ccc32)c1` , strictly under 20 µM or not?
Key: false

Exercise: Please check: IC50 for `O=C(OCCCCCCCCn1ccc2cc(O)ccc21)c1cccnc1` , strictly under 20 µM or not?
Key: false

Exercise: Please check: IC50 for `O=C(OCCCn1ccc2cc([N+](=O)[O-])ccc21)c1cccnc1` , strictly under 20 µM or not?
Key: false

Exercise: Please check: IC50 for `COC(=O)c1cc2cc(OCc3ccccc3)ccc2n1CCCCCCCOC(=O)Cc1ccc([N+](C)(C)C)cc1` , strictly under 20 µM or not?
Key: true

Exercise: Please check: IC50 for `C[N+](C)(C)c1ccc(CC(=O)OCCCCCCCCn2ccc3ccccc32)cc1` , strictly under 20 µM or not?
Key: false

Exercise: Please check: IC50 for `O=C(OCCCCCCCCn1ccc2cc([N+](=O)[O-])ccc21)c1cccnc1` , strictly under 20 µM or not?
Key: false

Exercise: Please check: IC50 for `C[n+]1cccc(C(=O)OCCCCCn2ccc3cc(OCc4ccccc4)ccc32)c1` , strictly under 20 µM or not?
Key: false

Exercise: Please check: IC50 for `COC(=O)c1cc2ccccc2n1CCCCCCCOC(=O)Cc1ccc([N+](C)(C)C)cc1` , strictly under 20 µM or not?
Key: true

Exercise: Please check: IC50 for `COC(=O)c1cc2ccccc2n1CCCCCCCCOC(=O)Cc1ccc([N+](C)(C)C)cc1` , strictly under 20 µM or not?
Key: true

Exercise: Please check: IC50 for `O=C(OCCCCCCCn1ccc2cc([N+](=O)[O-])ccc21)c1cccnc1` , strictly under 20 µM or not?
Key: false

Exercise: Please check: IC50 for `C[n+]1cccc(C(=O)OCCn2ccc3cc([N+](=O)[O-])ccc32)c1` , strictly under 20 µM or not?
Key: false

Exercise: Please check: IC50 for `O=C(OCCCCCn1ccc2cc([N+](=O)[O-])ccc21)c1cccnc1` , strictly under 20 µM or not?
Key: false

Exercise: Please check: IC50 for `COc1ccc2c(ccn2CCCCCCCOC(=O)c2ccc[n+](C)c2)c1` , strictly under 20 µM or not?
Key: false

Exercise: Please check: IC50 for `C[N+](C)(C)c1ccc(CC(=O)OCCCCCn2ccc3cc([N+](=O)[O-])ccc32)cc1` , strictly under 20 µM or not?
Key: false

Exercise: Please check: IC50 for `COC(=O)c1cc2cc(OCc3ccccc3)ccc2n1CCCCCCCCCOC(=O)c1ccc[n+](C)c1` , strictly under 20 µM or not?
Key: false

Exercise: Please check: IC50 for `COC(=O)c1cc2cc(OCc3ccccc3)ccc2n1CCCCCCOC(=O)Cc1ccc([N+](C)(C)C)cc1` , strictly under 20 µM or not?
Key: true
